As shown below, each of these compounds has a reported RUs at [10 µM] value.
Target: His6-BRD4 (BD1) (Homo sapiens, UniProt O60885)
Construct: A pET28 plasmid containing residues 44–168 of BRD4 (BD1), a 6xHis tag, a TEV protease cleavage site; made in house; host or cells: E. coli Rosetta (D3)
Experiment: Surface plasmon resonance (SPR) single-dose screening
Assay type: binding
Conditions: SPR, compound 10 µM, 1% DMSO, n = 2, decimal comma

Compound	RUs at [10 µM]
Cc1nnnn1-c1cc(F)cc(C(=O)N2CCN(C(=O)C(=O)NCC3CC3)C(C(C)C)C2)c1 (centres unmarked) [Compound 41]	1,13 ± 7,64 RUs
CCCc1c(C(=O)NCc2cccc3c2OCCO3)[nH]c(C)c1C(C)=O [Compound 16]	20,24 ± 10,15 RUs
COc1cccc(-n2c(C)nnc2SCC(=O)N2CC(n3cc(-c4ccc(F)cn4)nn3)C2)c1 [Compound 37]	12,42 ± 11,24 RUs
Cc1nnc(NC(=O)CNC(c2ccc(F)cc2)c2cnn(C)c2)s1 (centres unmarked) [Compound 88]	4,11 ± 7,31 RUs
CN(C)S(=O)(=O)c1ccc(-n2nc(-c3cccnc3)nc2-c2cn(C)c(=O)c3ccccc23)cc1 [Compound 51]	29,75 ± 5,31 RUs
Cc1cc(C)n2nc(CNC(=NCCCN3CCOCC3)N3CCC(NC(=O)CBr)C3)nc2n1 (centres unmarked) [Compound 93]	20,44 ± 23,06 RUs
Cc1ncc(C(=O)NCCn2cc(Cn3c(C)nc4ccccc43)nn2)c(=O)[nH]1 [Compound 83]	14,05 ± 12,27 RUs
COC(C)CC(=O)N1CCC(C2(O)CCN(C(=O)c3sc4nnc(C)c(C)c4c3N)C2)CC1 (centres unmarked) [Compound 39]	11,34 ± 6,3 RUs
COC(=O)c1cc(CNC(=O)C=Cc2cnc(C)[nH]c2=O)ccc1Cl [Compound 87]	15,1 ± 2,46 RUs
Cc1nc(=O)c(CCC(=O)N2CC3(CCCC3)c3ccccc32)c[nH]1 [Compound 85]	24,26 ± 6,71 RUs
COc1cccnc1C(=O)N1CCC2(CC(NC(=O)c3occc3Br)c3ccccc3O2)C1 (centres unmarked) [Compound 66]	20,41 ± 1,87 RUs
Cc1nc(=O)c(CCC(=O)NC2CC(O)(Cn3cc(-c4cnn(C)c4C)nn3)C2)c[nH]1 (centres unmarked) [Compound 81]	11,5 ± 1,85 RUs
CNC(=O)C1(C(=O)N[C@@H]2CCCC[C@H]2NC(=O)c2cnsn2)CCC1 [Compound 65]	7,82 ± 0,92 RUs
Cn1ccnc1C1CCN(C(=O)c2nn(C)c(=O)c3ccccc23)C1 (centres unmarked) [Compound 13]	5,53 ± 2,74 RUs
CC(NS(=O)(=O)c1cccc(-c2nnnn2C)c1)C1CCN(Cc2ccccc2)C1 (centres unmarked) [Compound 46]	19,71 ± 0,01 RUs
CCCc1c(C(=O)N2CCOC(CN(C)C(=O)c3cccn3C)C2)[nH]c(C)c1C(C)=O (centres unmarked) [Compound 26]	22,04 ± 8,53 RUs
COC1CC(CCC(=O)NC2CC3(CCN(C(=O)c4occc4Br)C3)Oc3ccccc32)C1 (centres unmarked) [Compound 62]	23,54 ± 4,84 RUs
